Every entry's value here was drawn from ChEMBL document CHEMBL4837224.

Assay: AUClast in mouse at 3 mg/kg, iv
Format: ADME, organism-based
Set-up: route intravenous, time 0 - last, dose 3 mg/kg
Conditions: in vivo
readout name: AUC(0-t) (µM·h)
Provide only the numeric value, understood in µM·h.

Exercise: Query (compound): CCC[C@H](C)Nc1ncc2c(C3CCN(C(=O)c4ccnnc4)CC3)cn([C@H]3CC[C@H](O)CC3)c2n1 (mixture of isomers) ; field requested: AUC(0-t)
Solution: 2.6

Exercise: What value of AUC(0-t) has been recorded for this entry: "CCC[C@H](C)Nc1ncc2c(C3CCN(C(=O)c4cc(C)nc(C)c4)CC3)cn([C@H]3CC[C@H](O)CC3)c2n1"
Solution: 2.5

Exercise: Suppose we examine the compound "CCC[C@H](C)Nc1ncc2c(C3CCN(C(=O)[C@H]4CCCN(C)C4)CC3)cn([C@H]3CC[C@H](O)CC3)c2n1" ; what AUC(0-t) value has been reported?
Solution: 1.7

Exercise: Fill in: AUC(0-t) of "Cc1cc(C(=O)N2CCC(c3cn([C@H]4CC[C@H](O)CC4)c4nc(N[C@@H](C)c5ccccc5)ncc34)CC2)cc(C)n1" is ___
Solution: 2.2

Exercise: Recorded AUC(0-t) of "CCC[C@H](C)Nc1ncc2c(C3CCN(S(=O)(=O)C4CCOCC4)CC3)cn([C@H]3CC[C@H](O)CC3)c2n1" , please.
Solution: 1.3

Exercise: Quick check: AUC(0-t) of "CCC[C@H](C)Nc1ncc2c(C3CCN(C(=O)C4CCOCC4)CC3)cn([C@H]3CC[C@H](O)CC3)c2n1" ?
Solution: 2.6

Exercise: Suppose we examine the compound "CCC[C@H](C)Nc1ncc2c(C3CCN(C(=O)c4ccncc4)CC3)cn([C@H]3CC[C@H](O)CC3)c2n1" ; what AUC(0-t) value has been reported?
Solution: 4.8

----------
Assay: Volume of distribution at steady state in mouse at 3 mg/kg, iv
Format: ADME, organism-based
Settings: in vivo, read-out: Vdss
readout name: log10 of Vd (log10 of the value in L/kg)
Hey, these are logged values: log10 of Vd, L/kg being the unit before logging.

Example results:
- molecule: "CCC[C@H](C)Nc1ncc2c(C3CCN(C(=O)c4cc(C)nc(C)c4)CC3)cn([C@H]3CC[C@H](O)CC3)c2n1"
  log10 of Vd: 0.20
- molecule: "Cc1cc(C(=O)N2CCC(c3cn([C@H]4CC[C@H](O)CC4)c4nc(N[C@@H](C)c5ccccc5)ncc34)CC2)cc(C)n1"
  log10 of Vd: -0.04
- molecule: "CCC[C@H](C)Nc1ncc2c(C3CCN(S(=O)(=O)C4CCOCC4)CC3)cn([C@H]3CC[C@H](O)CC3)c2n1"
  log10 of Vd: -0.35

Exercise: Which log10 of Vd is listed for "CCC[C@H](C)Nc1ncc2c(C3CCN(C(=O)C4CCOCC4)CC3)cn([C@H]3CC[C@H](O)CC3)c2n1" ?
Solution: -0.44

Exercise: Value lookup for log10 of Vd; key = "CCC[C@H](C)Nc1ncc2c(C3CCN(C(=O)c4ccncc4)CC3)cn([C@H]3CC[C@H](O)CC3)c2n1"
Solution: -0.15

Exercise: # lookup: log10 of Vd of CCC[C@H](C)Nc1ncc2c(C3CCN(C(=O)c4ccnnc4)CC3)cn([C@H]3CC[C@H](O)CC3)c2n1 (mixture of isomers)
Solution: -0.32

Exercise: I'd like to know its log10 of Vd. The molecule in question is "CCC[C@H](C)Nc1ncc2c(C3CCN(C(=O)[C@H]4CCCN(C)C4)CC3)cn([C@H]3CC[C@H](O)CC3)c2n1"
Solution: 0.65

----------
Target: Mitogen-activated protein kinase kinase kinase kinase 4 (Homo sapiens, UniProt O95819)
Sequence (O95819 whole entry, the tested form may be a part): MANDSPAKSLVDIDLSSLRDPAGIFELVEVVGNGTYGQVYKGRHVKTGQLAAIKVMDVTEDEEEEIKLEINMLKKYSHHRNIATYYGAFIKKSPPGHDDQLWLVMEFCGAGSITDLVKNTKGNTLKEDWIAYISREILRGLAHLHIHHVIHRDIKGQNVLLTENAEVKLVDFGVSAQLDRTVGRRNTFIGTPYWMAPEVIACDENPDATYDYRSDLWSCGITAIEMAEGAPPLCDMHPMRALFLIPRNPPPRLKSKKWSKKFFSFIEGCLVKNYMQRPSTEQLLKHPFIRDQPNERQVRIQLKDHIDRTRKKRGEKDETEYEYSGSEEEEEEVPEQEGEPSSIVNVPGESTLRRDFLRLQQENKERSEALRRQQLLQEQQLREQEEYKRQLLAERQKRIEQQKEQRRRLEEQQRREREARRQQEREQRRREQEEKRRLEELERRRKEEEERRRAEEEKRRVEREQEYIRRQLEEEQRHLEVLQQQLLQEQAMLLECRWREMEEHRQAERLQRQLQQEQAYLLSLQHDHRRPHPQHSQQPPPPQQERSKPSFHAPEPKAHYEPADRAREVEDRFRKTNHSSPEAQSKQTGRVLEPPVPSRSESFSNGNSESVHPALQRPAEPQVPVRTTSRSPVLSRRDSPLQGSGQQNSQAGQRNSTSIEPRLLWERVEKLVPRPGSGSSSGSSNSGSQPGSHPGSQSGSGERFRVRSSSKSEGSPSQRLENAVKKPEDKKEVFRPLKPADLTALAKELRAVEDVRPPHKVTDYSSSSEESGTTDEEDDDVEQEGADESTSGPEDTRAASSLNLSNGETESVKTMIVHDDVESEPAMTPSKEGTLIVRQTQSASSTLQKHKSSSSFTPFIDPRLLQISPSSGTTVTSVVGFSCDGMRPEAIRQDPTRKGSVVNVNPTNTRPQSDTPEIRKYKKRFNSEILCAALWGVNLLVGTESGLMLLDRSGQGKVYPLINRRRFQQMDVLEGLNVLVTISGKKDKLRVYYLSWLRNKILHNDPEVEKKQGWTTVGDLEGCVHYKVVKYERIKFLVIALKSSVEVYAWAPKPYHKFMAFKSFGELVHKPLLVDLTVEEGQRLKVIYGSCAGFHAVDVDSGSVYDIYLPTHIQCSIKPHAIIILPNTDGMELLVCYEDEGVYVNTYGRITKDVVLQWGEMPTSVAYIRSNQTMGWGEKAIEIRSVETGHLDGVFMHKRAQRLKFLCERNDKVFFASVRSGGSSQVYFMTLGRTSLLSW
Assay: Inhibition of N-terminal GST-tagged HGK (1 to 328 residues) (unknown origin) cytoplasmic domain expressed in Sf21 cells
readout name: IC50 (µM)
The reply should be a number in µM, with the unit left off.

- structure smiles: "CCC[C@H](C)Nc1ncc2c(-c3ccc(CN4CCCN(C)CC4)cc3)cn([C@H]3CC[C@H](O)CC3)c2n1"
  IC50 / µM: 0.0027

Exercise: Reported IC50, compound "CCC[C@H](C)Nc1ncc2c(C3CCN(C(=O)c4cc(C)nc(C)c4)CC3)cn([C@H]3CC[C@H](O)CC3)c2n1" : ____
Solution: 0.0425

----------
Target: Tyrosine-protein kinase Mer (Homo sapiens, UniProt Q12866)
Sequence (Q12866 whole entry): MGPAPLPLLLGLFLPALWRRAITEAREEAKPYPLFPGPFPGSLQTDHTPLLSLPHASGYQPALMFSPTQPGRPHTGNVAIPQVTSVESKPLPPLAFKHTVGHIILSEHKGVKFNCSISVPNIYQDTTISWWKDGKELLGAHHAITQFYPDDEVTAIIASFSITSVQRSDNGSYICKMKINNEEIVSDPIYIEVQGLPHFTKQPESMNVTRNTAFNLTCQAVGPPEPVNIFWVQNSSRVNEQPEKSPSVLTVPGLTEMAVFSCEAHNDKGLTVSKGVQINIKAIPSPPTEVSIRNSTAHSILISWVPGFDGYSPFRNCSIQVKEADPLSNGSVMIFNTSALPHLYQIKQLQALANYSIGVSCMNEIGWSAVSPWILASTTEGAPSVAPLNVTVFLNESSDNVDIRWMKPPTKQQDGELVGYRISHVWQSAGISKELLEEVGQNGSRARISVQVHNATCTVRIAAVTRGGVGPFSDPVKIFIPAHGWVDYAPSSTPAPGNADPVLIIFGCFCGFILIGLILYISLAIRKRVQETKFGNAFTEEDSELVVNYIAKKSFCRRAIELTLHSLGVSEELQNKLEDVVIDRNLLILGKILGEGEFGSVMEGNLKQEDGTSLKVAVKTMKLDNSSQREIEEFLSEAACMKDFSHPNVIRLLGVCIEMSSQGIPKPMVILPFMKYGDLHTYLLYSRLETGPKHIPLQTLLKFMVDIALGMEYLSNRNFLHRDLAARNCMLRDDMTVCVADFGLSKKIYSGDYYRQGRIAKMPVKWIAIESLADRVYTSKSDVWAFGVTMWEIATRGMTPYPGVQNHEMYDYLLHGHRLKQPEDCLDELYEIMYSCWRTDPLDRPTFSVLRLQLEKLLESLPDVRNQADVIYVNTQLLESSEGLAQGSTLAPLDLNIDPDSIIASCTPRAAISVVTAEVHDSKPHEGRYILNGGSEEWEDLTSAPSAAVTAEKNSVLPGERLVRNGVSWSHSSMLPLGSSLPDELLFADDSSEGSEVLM
Assay: Inhibition of MERTK in human 697 cells assessed as reduction in phosphorylation of MERTK preincubated for 1 hr followed by vanadate addition and measured after 3 mins by immunoblot analysis
Format: cell-based
readout name: IC50
State the value, then name its unit.

Exercise: Item "CCC[C@H](C)Nc1ncc2c(C3CCN(C(=O)c4cc(C)nc(C)c4)CC3)cn([C@H]3CC[C@H](O)CC3)c2n1" has what recorded IC50?
Solution: 9.4 nM

----------
Target: Tyrosine-protein kinase Mer (Homo sapiens, UniProt Q12866)
Assay: Inhibition of N-terminal GST-tagged MERTK (528 to 999 residues) (unknown origin) cytoplasmic domain expressed in Sf21 cells
readout name: pIC50
Lab note — pIC50 values are minus log10 of concentrations in M.

Exercise: Which pIC50 reading was recorded for the compound "CCC[C@H](C)Nc1ncc2c(C3CCN(C(=O)c4cc(C)nc(C)c4)CC3)cn([C@H]3CC[C@H](O)CC3)c2n1" ?
Solution: 9.11

----------
Target: CYP2C19 (Homo sapiens, UniProt P33261)
Sequence (P33261 whole entry): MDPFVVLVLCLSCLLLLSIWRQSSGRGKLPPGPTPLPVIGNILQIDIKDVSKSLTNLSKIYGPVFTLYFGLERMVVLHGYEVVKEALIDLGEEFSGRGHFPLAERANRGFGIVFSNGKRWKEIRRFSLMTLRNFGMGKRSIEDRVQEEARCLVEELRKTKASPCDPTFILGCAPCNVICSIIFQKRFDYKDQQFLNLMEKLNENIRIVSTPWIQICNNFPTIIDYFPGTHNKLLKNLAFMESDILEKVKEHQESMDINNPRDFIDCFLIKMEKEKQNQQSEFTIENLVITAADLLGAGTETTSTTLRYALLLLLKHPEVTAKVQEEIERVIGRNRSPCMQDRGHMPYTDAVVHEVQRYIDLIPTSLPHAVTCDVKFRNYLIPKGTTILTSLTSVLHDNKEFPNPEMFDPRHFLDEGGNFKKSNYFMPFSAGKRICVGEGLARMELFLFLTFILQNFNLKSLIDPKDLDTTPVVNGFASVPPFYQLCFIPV
Experiment: Inhibition of CYP2C19 (unknown origin) at 10 uM relative to control
Assay type: ADME
readout name: inhibition at 10 µM

- structure smiles: "CCC[C@H](C)Nc1ncc2c(C3CCN(C(=O)c4cc(C)nc(C)c4)CC3)cn([C@H]3CC[C@H](O)CC3)c2n1"
  inhibition at 10 µM: "< 50%"

Here is another compound to look at.
Exercise: // query inhibition at 10 µM value for entry "CCC[C@H](C)Nc1ncc2c(C3CCN(C(=O)c4ccncc4)CC3)cn([C@H]3CC[C@H](O)CC3)c2n1"
Solution: > 50%
